The values you see were collected from patent US10501455B2.

# TARGET_DESC: LTA4-h hydrolase (Homo sapiens)
# Construct: endogenous in cells
# Sequence (P09960 1-611): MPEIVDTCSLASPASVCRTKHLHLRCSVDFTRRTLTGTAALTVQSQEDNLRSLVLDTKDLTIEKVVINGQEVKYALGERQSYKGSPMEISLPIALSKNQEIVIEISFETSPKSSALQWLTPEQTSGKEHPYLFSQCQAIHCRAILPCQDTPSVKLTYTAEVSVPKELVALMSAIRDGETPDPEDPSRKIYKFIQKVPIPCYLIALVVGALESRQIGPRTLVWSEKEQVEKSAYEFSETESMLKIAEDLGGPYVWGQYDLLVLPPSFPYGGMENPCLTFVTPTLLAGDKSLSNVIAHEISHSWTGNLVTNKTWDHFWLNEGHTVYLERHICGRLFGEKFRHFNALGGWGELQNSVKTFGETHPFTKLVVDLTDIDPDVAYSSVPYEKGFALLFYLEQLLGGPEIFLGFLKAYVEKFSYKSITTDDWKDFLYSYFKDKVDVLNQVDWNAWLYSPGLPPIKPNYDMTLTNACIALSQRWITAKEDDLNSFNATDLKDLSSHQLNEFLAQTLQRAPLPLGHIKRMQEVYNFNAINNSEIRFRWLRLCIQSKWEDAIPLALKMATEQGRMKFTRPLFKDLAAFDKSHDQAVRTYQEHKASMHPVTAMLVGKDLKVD
# METHOD_SUMMARY: Whole blood assay (WBA)
pIC50: −log10 of the molar value.
Assign t whenever pIC50 does not fall below 6; assign f whenever it does.

Please review the following examples before continuing.
compound="CN1CCC(CN(Cc2ccc(C(=O)O)cc2)c2ccc(Oc3ccc(Cl)cc3)cc2)C1 (stereo not drawn) [Compound 15]" assigned_class=t
compound="COC(=O)c1ccc(CN(CC2CCN(C)C2)c2ccc(Oc3ccc(Cl)cc3)cc2)cc1 (stereo not drawn) [Compound 12]" assigned_class=t
compound="Clc1ccc(Oc2ccc(NCC3CCNC3)cc2)cc1 (stereo not drawn) [Compound 1]" assigned_class=t
compound="COC(=O)c1ccc(CN(CC2CCNC2)c2ccc(Oc3ccc(Cl)cc3)cc2)cc1 (stereo not drawn) [Compound 10]" assigned_class=t

API: the following record is the query input.
Q. Confirm if pIC50 reported for the compound COC(=O)c1ccc(CN(CC2CCN(Cc3ccc(F)cc3)C2)c2ccc(Oc3ccc(Cl)cc3)cc2)cc1 (stereo not drawn) [Compound 13] is 6 or above.
A. f
